# System: Micrococcus luteus
# experimentNotes: Antibacterial activity against Micrococcus luteus ATCC4698 after 24 hrs by two fold serial dilution method
# Format: functional
# conditionParameters: ATCC4698, 24 h
This section presents compounds with their documented log10(MIC) values.
endpointName: log10(MIC) (log10 of the value in µM)

• CCCCc1nc(Cl)c(/C=N/N2C(=O)c3cccc4c(N5CCOCC5)ccc(c34)C2=O)n1Cc1ccc(C)cc1 = 2.65
• CCCCc1nc(Cl)c(/C=N/N2C(=O)c3cccc4c(N5CCCC5)ccc(c34)C2=O)[nH]1 = 2.45
• CCCCCn1c(CCCC)nc(Cl)c1/C=N/N1C(=O)c2cccc3c(N4CCOCC4)ccc(c23)C1=O = 2.38
• CCCCCCCCn1c(CCCC)nc(Cl)c1/C=N/N1C(=O)c2cccc3c(N4CCOCC4)ccc(c23)C1=O = 2.94
• CCCCc1nc(Cl)c(/C=N/N2C(=O)c3cccc4c(N5CCOCC5)ccc(c34)C2=O)n1Cc1cccc(F)c1 = 2.64
• CCCCc1nc(Cl)c(/C=N/N2C(=O)c3cccc4c(N5CCOCC5)ccc(c34)C2=O)n1Cc1ccccc1F = 2.34
• CCn1cc(C(=O)O)c(=O)c2cc(F)c(N3CCNCC3)cc21 = 0.78
• CCCCc1nc(Cl)c(/C=N/N2C(=O)c3cccc4c(N5CCOCC5)ccc(c34)C2=O)n1Cc1ccc(Cl)c(Cl)c1 = 2.57
• CCCCCCCCCCn1c(CCCC)nc(Cl)c1/C=N/N1C(=O)c2cccc3c(N4CCOCC4)ccc(c23)C1=O = 2.92
